Test system: host cell (skeletal myoblasts, bovine embryo skeletal muscle or C2C12)
Assay: Host cell toxicity in the cross-validation assay
Assay type: cell-based
Settings: host cells in cross-validation assay, up to 10 µM
For each record, write down the corresponding Toxicity score (highest percentage of host cell growth inhibition).

// below: answered molecules
Molecule: OC(/C=C/c1ccccc1)(Cn1ccnc1)c1ccncc1 (centres unmarked)
Endpoint value: 1 (1-<20%)
//
Molecule: CCn1c(C(=O)NCc2cccnc2)cc2oc3ccccc3c21
Endpoint value: 4 (4-41-50%)

Below is a list of molecules. For each, state its recorded Toxicity score (highest percentage of host cell growth inhibition).
1. COC(=O)C1=C(C)N(Cc2cccnc2)C(=O)/C1=C\c1ccccc1OCc1ccccc1
2. Oc1cccc(Nc2nc(-c3ccncc3)cs2)c1
3. c1ccc(CC(NCc2ccncc2)c2ccccc2)cc1 (centres unmarked)

a:
1 (1-<20%)
4 (4-41-50%)
1 (1-<20%)
